ASSAY_DETAILS: Pharmacokinetics of acetate of Compound 22 in SD rats with single and repeated administration
Type: in vivo
DETAILS: male, Sprague-Dawley, rat, plasma, po, 63 mg/kg, Group 5 PO 63 mg/kg repeated, Day 7, Male, read-out: AUC0-t
OUTCOME_MEASURE: AUC(0-t)
Please don't drop the unit; write it after the number.

What measured AUC(0-t) goes with CC(=O)O.Nc1nc(NCCc2ccc(NC3COC3)cc2)nc2nc(-c3ccco3)nn12 [Acetate of Compound 22] ? 98100 ng·h/mL

====

ASSAY_DETAILS: Pharmacokinetics of acetate of Compound 22 in SD rats with single and repeated administration
Assay type: in vivo
DETAILS: male, Sprague-Dawley, rat, plasma, po, 21 mg/kg, Group 2 PO 21 mg/kg single, Male, read-out: Cmax
OUTCOME_MEASURE: Cmax (ng/mL)
Numbers only, in ng/mL.

What measured Cmax goes with CC(=O)O.Nc1nc(NCCc2ccc(NC3COC3)cc2)nc2nc(-c3ccco3)nn12 [Acetate of Compound 22] ? 16600
